measurement protocol: inhibitors of the yeast RAM network, pilot screen, dse1pr::URA3 reporter, 5-FOA selection (AID 869);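 further: 0% = DMSO wells with no growth and 100% = 10 µM 1-NA-PP1 with full growth; RAM network block rescues cells from 5-FOA so hits raise OD615 growth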
experimental context: S. cerevisiae dse1pr::URA3 5-FOA growth, OD615, 2 d; at 10 µM; stronger effect = higher value; strain carries analog-sensitive mutant Cbk1 kinase
quantity kind: inhibition (%)
Numbers only, in %.

Some molecules with known inhibition results, for comparison:
{"molecule": "CC1(C)Cc2c(sc3nc(SCC(=O)N4CCOCC4)nc(N)c23)CO1", "inhibition [%]": 1.49}
{"molecule": "COC(=O)c1ccc(C2c3c(oc4cc(C)c(C)cc4c3=O)C(=O)N2CCCN(C)C)cc1 (stereo not given)", "inhibition [%]": 0.34}
{"molecule": "CCn1c(=O)c2c3c(sc2n2c(SCc4ccc(F)cc4)nnc12)CCCC3", "inhibition [%]": 2.28}
{"molecule": "Cc1cc(C)n2nc(Nc3ccccc3)cc2n1", "inhibition [%]": 1.97}

Please look at the following molecule next.
Data request: Look up and state reported inhibition for Cc1cc(C)c(C#N)c(=N)o1
Data returned: 1.2

###

measurement protocol: growth suppression of PTEN-deleted HCT116, pilot screen, cell-based, HCT116 clonal line, CellTiter-Glo (AID 824);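 further: 0% = 20 µM Hyamine control and 100% = vehicle cell control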
experimental context: 60 h, at 10 µM, stronger effect = lower value
Results filed as inconclusive are left out.
Rule: viability below 90% gives y, anything at or above gives n.

Examples from the recorded data:
{"molecule": "COc1ccc(Cn2c(=O)[nH]c3cc(C(=O)N4CCN(Cc5ccccc5)CC4)ccc3c2=O)cc1", "label": "y"}
{"molecule": "Cc1cc(C)n2nc(S(=O)(=O)NCCc3ccccc3)nc2n1", "label": "n"}
{"molecule": "CCc1cc(=O)oc2cc(C)cc(O)c12", "label": "n"}
{"molecule": "CCOC(=O)C1=C(C)Nc2nc(C)nn2C1c1ccc(OCC)c(OC)c1 (stereo unspecified)", "label": "n"}
{"molecule": "CCOc1ccc(-n2c(SCC(=O)Nc3nccs3)nc3c(c2=O)SCC3)cc1", "label": "n"}

Data request: # strict comparison: is reported viability < 90%? input = Cc1ccc(C(=O)NCc2ccco2)cc1S(=O)(=O)N1CCCCC1
Data returned: y

Data request: Please indicate whether the reported viability of CCCC(=O)NCCCc1nc2ccccc2n1C is strictly below 90%.
Data returned: n

Data request: Please determine if CCOc1ccc2[nH]c(C)c(CN3CCOCC3)c(=O)c2c1 is below 90% in terms of viability.
Data returned: n

Data request: Record COc1ccccc1N1CCN(C(=O)c2cc3cc(Br)ccc3oc2=O)CC1 : is its viability strictly below 90%?
Data returned: n

###

tested on: Receptor tyrosine-protein kinase erbB-2 (Homo sapiens) (UniProt P04626)
Sequence (P04626 whole entry, looked up): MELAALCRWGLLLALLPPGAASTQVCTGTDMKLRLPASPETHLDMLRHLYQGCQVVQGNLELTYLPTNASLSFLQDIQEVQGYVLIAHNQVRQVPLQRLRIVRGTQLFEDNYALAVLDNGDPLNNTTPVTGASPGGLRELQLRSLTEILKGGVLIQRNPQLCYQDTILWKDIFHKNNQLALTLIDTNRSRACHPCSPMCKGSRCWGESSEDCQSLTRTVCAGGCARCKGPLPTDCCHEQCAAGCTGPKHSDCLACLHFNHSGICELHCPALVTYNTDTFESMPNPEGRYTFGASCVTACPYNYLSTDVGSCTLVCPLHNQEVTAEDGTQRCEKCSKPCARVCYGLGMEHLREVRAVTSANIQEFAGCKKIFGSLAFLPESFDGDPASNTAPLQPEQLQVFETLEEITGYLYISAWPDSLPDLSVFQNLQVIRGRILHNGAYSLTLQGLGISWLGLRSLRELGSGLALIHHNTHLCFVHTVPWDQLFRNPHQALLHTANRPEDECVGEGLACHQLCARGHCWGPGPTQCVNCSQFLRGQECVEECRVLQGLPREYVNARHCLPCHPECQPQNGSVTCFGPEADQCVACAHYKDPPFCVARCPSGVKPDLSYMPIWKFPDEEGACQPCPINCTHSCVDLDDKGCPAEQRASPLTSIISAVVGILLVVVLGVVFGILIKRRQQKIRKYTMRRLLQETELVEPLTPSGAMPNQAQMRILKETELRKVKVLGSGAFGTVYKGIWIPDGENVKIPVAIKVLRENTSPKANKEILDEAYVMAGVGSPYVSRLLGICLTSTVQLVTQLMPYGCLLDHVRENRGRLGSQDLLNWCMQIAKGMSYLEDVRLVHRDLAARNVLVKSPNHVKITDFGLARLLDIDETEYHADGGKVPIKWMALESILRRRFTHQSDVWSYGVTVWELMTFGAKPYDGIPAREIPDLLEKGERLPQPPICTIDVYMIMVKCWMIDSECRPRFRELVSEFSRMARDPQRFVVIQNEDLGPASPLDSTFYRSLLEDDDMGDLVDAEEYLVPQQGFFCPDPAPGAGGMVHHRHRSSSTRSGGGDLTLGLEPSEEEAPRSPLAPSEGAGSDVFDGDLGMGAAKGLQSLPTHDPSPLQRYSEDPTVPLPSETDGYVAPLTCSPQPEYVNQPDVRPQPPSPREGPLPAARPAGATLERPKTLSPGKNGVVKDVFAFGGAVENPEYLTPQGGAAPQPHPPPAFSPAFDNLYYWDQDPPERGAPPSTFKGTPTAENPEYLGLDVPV
measurement protocol: reducers of endogenous Her2 protein level, primary screen, SKBR3 breast tumor cells, AlphaScreen, ATP viability (AID 461);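 further: lower value means less Her2 protein in the cells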
experimental context: 18-24 h, at 10 µM, stronger effect = lower value
So I've got a bunch of compounds here, and I need their Her2 level values.
Answers are plain numbers, in %.

Past entries and their recorded results:
{"compound": "Cc1csc(NC(=O)c2cc3c(s2)-c2ccccc2OC3)n1", "Her2 level, %": 92.5}
{"compound": "Cc1nc2c(o1)CCc1ccccc1C2O (stereo unspecified)", "Her2 level, %": 91}
{"compound": "CCN(CC)CCCNC(=O)c1nn(-c2ccc(OC)cc2OC)c(=O)c2ccccc12", "Her2 level, %": 103}
{"compound": "CCOC(=O)c1cc(C)n(CCCN2CCOCC2)c1C", "Her2 level, %": 85}
{"compound": "CC1C=CC(C)C(C(=O)O)C1C(=O)O (stereo unspecified)", "Her2 level, %": 93}
{"compound": "CC(C)(C)OC(=O)NC(CCNC=C1C(=O)OC(C)(C)OC1=O)C(=O)O (stereo unspecified)", "Her2 level, %": 92.5}

Below are 3 compounds. Give each one its Her2 level.
1. O=C(CCNC(=O)Cn1ccc2ccccc2c1=O)NCCN1CCc2ccccc2C1
2. COC(=O)CN(c1nc(C)c(Cl)c(OC)n1)S(=O)(=O)c1ccc(C)cc1
3. CCOC(=O)N1CCN(c2c(N3CCN(c4ccccc4OC)CC3)c(=O)c2=O)CC1

Data returned:
1: 98; 2: 104; 3: 104

Kindly give each listed record's Her2 level.
1. COc1ccc(CC(=O)Nc2c3c(nn2-c2cccc(Cl)c2)CS(=O)(=O)C3)cc1
2. Cn1c(=O)c2ncn(CC(=O)NCCOc3ccc(C(C)(C)C)cc3)c2n(C)c1=O

Data returned:
89
110

###

measurement protocol: OD615 S. cerevisiae growth inhibition, permissive medium, pilot counter-assay, permissive growth control for S. cerevisiae lifespan shortening project (AID 705)
experimental context: OD615, 24 h, at 10 µM, stronger effect = higher value
quantity kind: growth inhibition (%)
Answers are plain numbers, in %.

{"molecule": "CC(=O)N1CCc2cc(C(=O)CN3CCN(c4cccc(Cl)c4)CC3)ccc21", "growth inhibition / %": -11}

Please supply growth inhibition for each of the following items, keeping them in order.
1. COC(=O)c1ccc(C2c3c(oc4cc(C)c(C)cc4c3=O)C(=O)N2CCCN(C)C)cc1 (configuration not stated)
2. COc1ccc(Cn2nnc3c(=O)[nH]c(C4CCCN(C(=O)c5ccccc5)C4)nc32)cc1 (configuration not stated)
3. CCOC(=O)Cn1c(=O)oc2cc(S(=O)(=O)Nc3ccc(F)cc3)ccc21
4. COc1ccc(C2C3=C(CC(C)(C)CC3=O)Nc3n[nH]c(C)c32)cc1 (configuration not stated)
5. CC(C)(C)c1ccc(OCC(=O)N2CCN(C=O)CC2)cc1
6. COc1ccc(C(=O)N2CCN(c3c(C)cccc3C)CC2)cc1OC

Data returned:
1: -7.92; 2: -8.47; 3: -7.54; 4: -9.23; 5: -6.68; 6: -19.6

Give me growth inhibition for each of these molecules, listed below.
1. CC(=O)Nc1cccc(N2C(=O)CC(Cc3ccccc3)C2=O)c1 (configuration not stated)
2. CCSc1nnc(NC(=O)CCc2ccccc2)s1
3. COc1ccc(-n2nnc3c(=O)n(CC(=O)N4CCCc5ccccc54)cnc32)cc1
4. O=C(NCCO)c1ccc2[nH]c3c(c2c1)CCCC3

Data returned:
-6.24
0.055
-1.22
-12.1

# batch: return growth inhibition for each of the 4 molecules below
1. CCC(=O)N1CCc2cc(Br)cc(S(=O)(=O)CCC(=O)NCc3ccco3)c21
2. OC(C#CCN1CCOCC1)c1cccs1 (configuration not stated)
3. COC(=O)c1ccccc1NC(=O)C1CCCN(c2nnc(-n3cccc3)s2)C1 (configuration not stated)
4. Cn1c2c(c(=O)n(C)c1=O)CN(Cc1ccco1)CN2

Data returned:
[-26.8, -5.03, -1.67, -2]

###

measurement protocol: growth suppression of PTEN-deleted HCT116, pilot screen, cell-based, HCT116 clonal line, CellTiter-Glo (AID 824);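 further: 0% = 20 µM Hyamine control and 100% = vehicle cell control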
experimental context: 60 h, at 10 µM, stronger effect = lower value
Inconclusive results are not listed.
Response field label: string, one of true (1) (viability strictly below 90%) or false (0).

{"compound": "O=C1CCc2cc(S(=O)(=O)N3CCCC3C(=O)N3CCN(c4ccccc4)CC3)ccc2N1 (stereo unspecified)", "label": "true (1)"}
{"compound": "C=C(C)CSc1nc2c(c(=O)[nH]c(=O)n2C)n1CCC(C)C", "label": "true (1)"}
{"compound": "CCN(CCNC(=O)C1CCN(c2nnc(-n3cccc3)s2)CC1)c1ccccc1", "label": "false (0)"}
{"compound": "CCOc1ccc(-c2cc(CCCC(=O)NCc3cccnc3)no2)cc1", "label": "false (0)"}
{"compound": "COc1ccc(C(=O)N2CCN(c3c(C)cccc3C)CC2)cc1OC", "label": "true (1)"}
{"compound": "Cn1c(C(=O)N2CCCC2)cc2c(=O)n(C)c3ccccc3c21", "label": "false (0)"}
{"compound": "Cc1ccc(CNC(=O)CCCNS(=O)(=O)c2cccc3nonc23)cc1", "label": "false (0)"}
{"compound": "COc1nc(NC(C)(C)C)nc(Oc2ccc(=O)n(C)n2)n1", "label": "false (0)"}
{"compound": "COc1ccc(NC(=O)C2CCN(S(=O)(=O)c3cccc4cccnc34)CC2)cc1OC", "label": "false (0)"}

Pending compound:
Data request: For this compound, is viability lower than 90%? Cc1cccc(-n2ncc3c(NCc4ccccc4)ncnc32)c1
Data returned: true (1)

###

measurement protocol: Restrictive medium S. cerevisiae growth inhibition, OD615, pilot screen of yeast lifespan reduction project, restrictive growth control (AID 706);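 further: modified DeaD lifespan yeast strain shifted to restrictive glucose medium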
experimental context: OD615, 48 h, at 10 µM, stronger effect = higher value
Field: growth inhibition. Provide a value for each of the molecules that follow.
One number for each entry, in %.

Known growth inhibition results, listed for orientation:
{"molecule": "Cc1cc(NC(=O)C2CC(c3ccc(F)cc3)=NO2)no1 (stereo unspecified)", "quantity unit": "%", "growth inhibition": -0.655}
{"molecule": "O=C(Nc1ccc2c(c1)OCCO2)c1ccc(NC(=O)C2CCCO2)cc1 (stereo unspecified)", "quantity unit": "%", "growth inhibition": -3.79}
{"molecule": "COc1ccc(OC)c(NC(=O)C2CCCN(S(=O)(=O)c3cccc4cccnc34)C2)c1 (stereo unspecified)", "quantity unit": "%", "growth inhibition": -10.7}
{"molecule": "c1ccc(CSc2nnc(-c3ccncc3)o2)cc1", "quantity unit": "%", "growth inhibition": 9.8}
{"molecule": "O=C(NCCN1C(=O)C2C3C=CC(C3)C2C1=O)Nc1cccnc1 (stereo unspecified)", "quantity unit": "%", "growth inhibition": -7.67}

Would you kindly look at the next entry?
Data request: Query growth inhibition for CCCC(=O)Nc1nc2ccc(S(=O)(=O)N3CCCCC3)cc2s1
Data returned: -19.5
